B1: library; numbered along this chain (parent)
chain: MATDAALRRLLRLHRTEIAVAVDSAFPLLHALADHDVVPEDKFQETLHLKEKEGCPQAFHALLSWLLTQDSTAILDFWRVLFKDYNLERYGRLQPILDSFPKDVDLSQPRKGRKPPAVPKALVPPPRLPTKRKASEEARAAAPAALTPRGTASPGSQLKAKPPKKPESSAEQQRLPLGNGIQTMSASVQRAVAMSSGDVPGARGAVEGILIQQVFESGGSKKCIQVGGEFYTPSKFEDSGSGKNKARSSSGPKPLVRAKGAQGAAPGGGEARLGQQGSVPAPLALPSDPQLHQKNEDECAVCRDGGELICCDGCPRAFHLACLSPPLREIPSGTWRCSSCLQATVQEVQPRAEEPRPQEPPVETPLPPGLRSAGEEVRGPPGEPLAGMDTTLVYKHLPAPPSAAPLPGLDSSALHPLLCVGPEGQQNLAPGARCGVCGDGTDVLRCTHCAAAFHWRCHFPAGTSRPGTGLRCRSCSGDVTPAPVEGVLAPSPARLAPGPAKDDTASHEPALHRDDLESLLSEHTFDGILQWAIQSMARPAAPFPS

Variants of: B1
assay-procedure: AIRE transcriptional activation functional score (insulin promoter-GFP; nonsense median 0, synonymous median 1) (normalised score); higher = higher AIRE activity (more reporter activation)
measurement-conditions: with insulin promoter-GFP reporter in HEK293
Class field: derived from AIRE transcriptional activation functional score; ranges LOW (below 0.8), MEDIUM (0.8 to below 1), HIGH (1 or more)

A selection of reference data follows.
variant_spec=K221G group=MEDIUM
variant_spec=G498Q group=MEDIUM
variant_spec=S491E group=HIGH
variant_spec=R473I group=MEDIUM
variant_spec=A138F group=HIGH
variant_spec=P315W group=HIGH
variant_spec=H523Y group=HIGH
variant_spec=I181M group=MEDIUM

Ask | Form: Item = `F59L` ; Class = ?
Reply | LOW

Ask | Form: Item = `L28V` ; Class = ?
Reply | LOW

Ask | Form: Item = `S239H` ; Class = ?
Reply | HIGH

Ask | Form: Item = `H35R` ; Class = ?
Reply | LOW

Ask | Form: Item = `E51Y` ; Class = ?
Reply | LOW

Ask | Form: Item = `A152L` ; Class = ?
Reply | HIGH

Ask | Form: Item = `A461H` ; Class = ?
Reply | HIGH

Ask | Form: Item = `G438F` ; Class = ?
Reply | LOW

Ask | Form: Item = `A321H` ; Class = ?
Reply | MEDIUM

Ask | Form: Item = `G431C` ; Class = ?
Reply | MEDIUM

Ask | Form: Item = `V420T` ; Class = ?
Reply | LOW

Ask | Form: Item = `C302T` ; Class = ?
Reply | LOW
